Origin of values: the supplement of paper PMC8975748

tested on: Saccharomyces cerevisiae BY4741 SeMeCo community; assay: z-score of prototroph abundance vs DMSO median; higher = larger share of this subpopulation than in DMSO controls; conditions: 10 µM; 24 h; SM minimal medium; subpopulation (auxotrophy): Prototroph
MEASUREMENT_TYPE: z-score of prototroph abundance
Enter the number alone.

Briefly, z-score of prototroph abundance measured for CC[C@H]1OC(=O)C[C@@H](O)[C@H](C)[C@@H](O[C@@H]2O[C@H](C)[C@@H](O)[C@H](N(C)C)[C@H]2O)[C@@H](CCN2C[C@H](C)C[C@H](C)C2)C[C@@H](C)C(=O)/C=C/C(C)=C/[C@@H]1CO[C@@H]1O[C@H](C)[C@@H](O)[C@@H](OC)[C@H]1OC [Tilmicosin phosphate] : 0.18

Briefly, z-score of prototroph abundance measured for O=C(O)c1ccccc1C(=O)Nc1ccc(S(=O)(=O)Nc2nccs2)cc1 : -0.99

Briefly, z-score of prototroph abundance measured for NS(=O)(=O)Cc1noc2ccccc12 [Zonisamide] : -0.82

###

system: Saccharomyces cerevisiae BY4741 SeMeCo community; assay: z-score of subpopulation abundance vs DMSO median, subpopulation auxotrophic for L; higher = larger share of this subpopulation than in DMSO controls; conditions: 10 µM; 24 h; SM minimal medium; subpopulation (auxotrophy): L
Where a name gives a salt, the structure may show the parent alone.
Listing: z-score of subpopulation abundance of selected compounds

Briefly, z-score of subpopulation abundance measured for CCn1cc(C(=O)O)c(=O)c2cnc(N3CCNCC3)nc21 : -0.32

Briefly, z-score of subpopulation abundance measured for N#C/C(=C1/SC[C@@H](c2ccc(Cl)cc2Cl)S1)n1ccnc1 : -1.35

Briefly, z-score of subpopulation abundance measured for CN(C)[C@@H](CCOc1cccc2ccccc12)c1ccccc1 [Dapoxetine HCl] : 0.84

Briefly, z-score of subpopulation abundance measured for CNCC[C@@H](Oc1ccccc1C)c1ccccc1 [Atomoxetine HCl] : 0.96

Briefly, z-score of subpopulation abundance measured for OC(c1cc(C(F)(F)F)nc2c(C(F)(F)F)cccc12)C1CCCCN1 (stereo unspecified) [Mefloquine HCl] : 0.1

New cases:
Briefly, z-score of subpopulation abundance measured for CC/C(=C(\c1ccccc1)c1ccc(OCCN(C)C)cc1)c1ccccc1 [Tamoxifen Citrate] : -0.42

Briefly, z-score of subpopulation abundance measured for CCCCCCCCN=C(N)NC(N)=NCc1ccc(Cl)c(Cl)c1 [Olanexidine Hydrochloride semihydrate] : -3.44

Briefly, z-score of subpopulation abundance measured for CN[C@H]1CC[C@@H](c2ccc(Cl)c(Cl)c2)c2ccccc21 [Sertraline HCl] : -0.29

###

test system: Saccharomyces cerevisiae BY4741 SeMeCo community; experiment: z-score of subpopulation abundance vs DMSO median, subpopulation auxotrophic for HLU; higher = larger share of this subpopulation than in DMSO controls; details: 10 µM; 24 h; SM minimal medium; subpopulation (auxotrophy): HLU
Counter-ions that a name gives are not always drawn.
Listing: z-score of subpopulation abundance of selected compounds
Enter the number alone.

Worked cases, answers included:
Briefly, z-score of subpopulation abundance measured for CC1(C)S[C@@H]2[C@H](NC(=O)[C@H](NC(=O)N3CCN(S(C)(=O)=O)C3=O)c3ccccc3)C(=O)N2[C@H]1C(=O)O [Mezlocillin Sodium] : 0.28

Briefly, z-score of subpopulation abundance measured for CC(C(=O)O)c1ccc2c(c1)Cc1cccnc1O2 (configuration not stated) : -0.3

Briefly, z-score of subpopulation abundance measured for COc1nc2ccc(Br)cc2cc1[C@@H](c1ccccc1)[C@@](O)(CCN(C)C)c1cccc2ccccc12 [Bedaquiline fumarate] : 0.68

Briefly, z-score of subpopulation abundance measured for COc1ccc(C2CNC(=O)C2)cc1OC1CCCC1 (stereo not drawn) [S- (+)-Rolipram] : -1.07

Briefly, z-score of subpopulation abundance measured for O=C1C(N(CO)C(=O)NCO)N(CO)C(=O)N1CO (configuration not stated) : 0.05

New cases:
Briefly, z-score of subpopulation abundance measured for CCn1cc(C(=O)O)c(=O)c2cc(F)c(N3CCN(C)CC3)cc21 [Pefloxacin Mesylate] : -0.54
